organism: Rattus norvegicus; assay: Open TG-GATES - Regimen: Single; type: toxicity, organism-based, Sprague-Dawley; parameters: regimen Single, gender Male, age 6 weeks; conditions: in vivo, po, 0 mg/kg, 6 h, tissue Plasma, route gavage, dose level Control
RECORDED METRIC: Cl

Reference set (2 entries):
COMPOUND | OBSERVED
CN1C(=O)CCS(=O)(=O)C1c1ccc(Cl)cc1 (stereo not drawn) | 107 meq/L
O=C(OC[C@H]1O[C@@H](OC(=O)c2cc(O)c(O)c(OC(=O)c3cc(O)c(O)c(O)c3)c2)[C@H](OC(=O)c2cc(O)c(O)c(OC(=O)c3cc(O)c(O)c(O)c3)c2)[C@@H](OC(=O)c2cc(O)c(O)c(OC(=O)c3cc(O)c(O)c(O)c3)c2)[C@@H]1OC(=O)c1cc(O)c(O)c(OC(=O)c2cc(O)c(O)c(O)c2)c1)c1cc(O)c(O)c(OC(=O)c2cc(O)c(O)c(O)c2)c1 | 105.2 meq/L

Q: // Cl lookup, key: Nc1c2c(nc3ccccc13)CCCC2
Ans: 106.8 meq/L

Source: ChEMBL document CHEMBL3885861
